molecular target: CPEB3; assay: pooled miR-30 sensor sort-seq; sequence = guide strand; conditions: shRNA; note: reference of the scale not given here
ATTRIBUTE_MEASURED: sensor-assay potency score (higher = more potent)
Lab note: jot the number down without any unit.

For TAGAGTAGCGTTCTACTCGTTC , what is its reported sensor-assay potency score (higher = more potent)?
-0.216

Next record, please: TAATATAACATTAACAACTTGG
0.134

Can you handle TATAACATTAACAACTTGGGGG next?
0.19

Can you handle TTGCAGGTCAGAACACCTCTGT next?
0.0399

TTTTGCTACATCTGCCACCTAC ?
-0.378

Param item: TAGTCTTGCAATCATTGTGTGT
-0.635

Param item: TTCCATCTGCATCTTGTCCGGG
0.148

And the next one, TTTAATTGATATCCTAGCCTGA ?
0.351

// next item, sensor-assay potency score (higher = more potent) requested
Which sensor-assay potency score (higher = more potent) is reported for this sequence? TTGAAGAATATCCTACACCTAG
-0.344

----------
Collected sensor-assay potency score (higher = more potent) values appear next to each entry.
biological target: FAM103A1; assay: pooled miR-30 sensor sort-seq; sequence = guide strand; conditions: shRNA

Solved entries (count: 3):
For TTTCTGTGAATCTACTAGCAAA , what is its reported sensor-assay potency score (higher = more potent)?
-1.27

Proceed to TCTACTAGCAAACATCTCTTCA
-0.435

Could you do the same for TTGTCATTTTCTGTGAATCTAC , please?
-0.838

Further cases:
Give the measured sensor-assay potency score (higher = more potent) of ATCTACTAGCAAACATCTCTTC .
-0.234

Moving on to ATAATGTCCATATTGCTGGGGA
-0.0469

Follow-up entry: TACTAGCAAACATCTCTTCAAA
-1.05

----------
target: SCGB3A1; assay: pooled miR-30 sensor sort-seq; sequence = guide strand; conditions: shRNA
The threshold is inclusive: sensor-assay potency score (higher = more potent) of exactly -1 counts as MET; values below receive NOT MET.

Past entries and their recorded results:
Please check the record TCTATGAGGTGGTTCACGGGGA and state if its sensor-assay potency score (higher = more potent) is at or above -1.
MET

# repeat for AAAGCAGCAGCGGAGCTGCAGG
NOT MET

Field: next sequence
Given ACTAAGAAAGCAGCAGCGGAGC , state whether its sensor-assay potency score (higher = more potent) is at least -1.
NOT MET

----------
target: SIRT7; experiment: pooled miR-30 sensor sort-seq; sequence = guide strand; conditions: shRNA
Classification field: enter Satisfied for sensor-assay potency score (higher = more potent) values not below -0.8, Not satisfied for values below it.

Some entries whose results are on file:
I'd appreciate it if you could say whether TAACGCTTCTCCCTTTCTGAAG has sensor-assay potency score (higher = more potent) at least equal to -0.8.
Not satisfied

Try this sequence too: TAGACGACCAAGTATTTGGCGT
Satisfied

Input TTCTGCACAGCGACTTCCGACT
Not satisfied

Follow-up item: TTCTGAAGCAGTGTCCACACTC
Satisfied

Repeat with TTCTTCACCAGCACGCAGGGGA
Satisfied

Next record, please: TCCGTCACATCGAACACCCGCA
Satisfied

// next record ATGACGTCATCACACTTCCCAT
Not satisfied

Now give it for TTGGTCATGCACCAGAGGCGTG too.
Not satisfied

Next:
API: above_or_equal(metric=sensor-assay potency score (higher = more potent), cutoff=-0.8) for item TGGGTACTTCTTTAGAACCTTC
Satisfied

// same read-out, input: TTCAATGTACATGTTCCCGTGG
Satisfied
